Biological target: recombinant DYRK1A kinase (Homo sapiens, UniProt Q13627)
Assay: DYRK1A kinase assay (Ser/Thr 18 peptide Z-lyte FRET)
Conditions: DYRK1A kinase activity; 15 μM ATP, 4 μM Ser/Thr peptide 18, one hour at room temperature
QUANTITY: EC50 (nM)

Completed entries (count: 2):
c1cnc2[nH]cc(-c3ccc4ncnc(N5CCNC6(CCCC6)C5)c4c3)c2c1 [Compound 98]    2
CN1CCC(NC(=O)c2cnc3ccc(-c4c[nH]c5ncccc45)cn23)CC1 [Compound 14]    1

A = O=C(NCC(F)F)c1cnc2ccc(-c3c[nH]c4nc(C5CC5)ccc34)cn12 [Compound 1499]
B = Cc1nc2c(F)cc(-c3c[nH]c4ncc(N5CCN(C)CC5)cc34)cc2n1C(C)C [Compound 367]
Incoming: Which entry shows the lesser value of EC50 here, A or B ? Give the label under which the chosen entry appears.
Outgoing: A
(A: 1 nM, B: 2 nM)

----------
Biological target: recombinant DYRK1A kinase (Homo sapiens)
Test: DYRK1A kinase assay (Ser/Thr 18 peptide Z-lyte FRET)
Conditions: DYRK1A kinase activity; 15 μM ATP, 4 μM Ser/Thr peptide 18, one hour at room temperature
QUANTITY: EC50 (nM)

Please review the entries below; each comes with its answer.
O=C(c1cnn2ccc(-c3c[nH]c4nc(C5CCC5)ccc34)cc12)N1CCCCC1 [Compound 1558]    291
CN1CCN(c2cc(-c3cnc4[nH]cc(-c5ccc6c(c5)C5(CCCCC5)NC6=O)c4c3)ccn2)CC1 [Compound 1398]    4
CN1C2CCC1CN(C(=O)c1cnc3[nH]cc(-c4cc5ccncc5s4)c3c1)C2 [Compound 2041]    115
Cc1nc2c(F)cc(-c3c[nH]c4ncccc34)cc2n1C1CCNCC1 [Compound 23]    2

I = Cc1ccc2c(-c3cc(F)c4nc(C)n(C(C)C)c4c3)c[nH]c2n1 [Compound 1459]
II = c1cnc2[nH]cc(-c3ccc4ncnn4c3)c2c1 [Compound 29]
Incoming: // returns I or II , whichever has the lower EC50 Mark your selection by writing its label.
Outgoing: I

1 = c1cnc2[nH]cc(-c3ccn4ncnc4c3)c2c1 [Compound 30]
2 = Cc1cnc2[nH]cc(-c3ccc4nccn4c3)c2c1 [Compound 280]
Incoming: When the recorded EC50 values are compared, which is smaller: that of 1 or that of 2 ? Kindly state the label of the option you pick.
Outgoing: 2

----------
Target: recombinant DYRK1A kinase (Homo sapiens)
Test: DYRK1A kinase assay (Ser/Thr 18 peptide Z-lyte FRET)
Details: DYRK1A kinase activity; 15 μM ATP, 4 μM Ser/Thr peptide 18, one hour at room temperature
QUANTITY: EC50 (nM)

Worked examples, 3 molecules total:
c1cnc2ccc(-c3c[nH]c4nc(-c5cncs5)ccc34)cc2c1    37
O=C(c1cnn2ccc(-c3c[nH]c4ncccc34)cc12)N1CCCCC1    7
CN1CCOc2cc(-c3c[nH]c4ncccc34)ccc2C1=O    25

P = CC1(C)COc2ccc(-c3c[nH]c4ncccc34)cc21
Q = O=C(NC1CCN(C2CC2)CC1)c1cnn2ccc(-c3c[nH]c4ncccc34)cc12
R = O=C(NC1CCN(Cc2ccccn2)CC1)c1cnn2ccc(-c3c[nH]c4ncccc34)cc12
S = CN1CCC(Nc2cncc(-c3c[nH]c4ncccc34)n2)CC1
Incoming: Arrange the 4 molecules from largest to smallest EC50. A ranking is expressed here by listing the labels in the requested order.
Outgoing: P, S, Q, R

P = CN1CCC(NC(=O)c2cnn3ccc(-c4c[nH]c5ncc(-c6cccnc6)cc45)cc23)CC1
Q = O=C(Nc1ccc2c(-c3ccc4c(c3)C3(CCNCC3)CC4=O)c[nH]c2n1)c1ccncc1
R = c1cnc2[nH]cc(-c3ccc4ncnc(N5CCNC6(CC6)C5)c4c3)c2c1
S = CN1CCC(Oc2ncnc3ccc(-c4c[nH]c5ncccc45)cc23)CC1
Incoming: Ascending by EC50, please. Returns: the labels listed in the requested order.
Outgoing: R, S, P, Q
